Source of measurements: patent US20220396626A1

# tested on: T1, human CLL1 ECD-His (human CLL1 extracellular domain with His tag) (human, UniProt Q5QGZ9 65-265)
# T1 construct: also called antigen human CLL1 ECD-His; antigen CLL1; not shown: His tag
# T1 sequence: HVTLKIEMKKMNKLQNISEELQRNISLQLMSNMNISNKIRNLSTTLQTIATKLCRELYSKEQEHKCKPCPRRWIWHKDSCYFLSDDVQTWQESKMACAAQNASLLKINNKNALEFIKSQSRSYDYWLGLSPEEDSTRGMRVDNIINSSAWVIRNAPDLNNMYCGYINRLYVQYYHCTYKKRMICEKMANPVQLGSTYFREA
# assay notes: BLI (ForteBio), antibody on AHC sensor, 60 nM human CLL1 ECD-His, 1:1 model
recorded endpoint: pKd
Give bare numbers, as −log10 of the molar value.

The examples below pair each entry with its known result.
binder	recorded endpoint	recorded result
humanized antibody hz27H4H1L2 (antibody, V domains shown, Heavy chain variable region hz27H4H1 with light chain variable region hz27H4L2; also called h27H4H1L2 (complete antibody)) VH: EVQLVQSGAEVKKPGASVKVSCKASGYTFTGYHMHWVRQAPGQRLEWMGRINPYNGAASHNQKFKDRVTITRDTSASTAYMELSSLRSEDTAVYYCARGWDYDGGYYAMDYWGQGTLVTVSS VL: DIVMTQSPLSLPVTPGEPASISCKSSQSLLYSDNQKNYLAWYLQKPGQSPQLLIYWASTRESGVPDRFSGSGSGTDFTLKISRVEAEDVGVYYCQQYYTYPYTFGQGTKLEIK	pKd	8.66
anti-human CLL-1 control antibody 1075.7 (antibody, it was captured by anti-human IgG sensors and detected with anti-human IgG-Fc, so a human Fc was present; also called ch1075.7) scFv: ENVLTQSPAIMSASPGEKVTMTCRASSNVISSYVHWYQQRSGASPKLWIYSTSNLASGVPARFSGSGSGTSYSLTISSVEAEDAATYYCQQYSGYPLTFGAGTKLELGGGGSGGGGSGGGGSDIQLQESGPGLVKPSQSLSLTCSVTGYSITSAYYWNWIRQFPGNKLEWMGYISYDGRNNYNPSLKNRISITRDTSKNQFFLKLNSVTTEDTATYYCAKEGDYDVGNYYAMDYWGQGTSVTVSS	pKd	8.17
chimeric antibody ch27H4 (antibody, V domains shown, also called parent antibody) VH: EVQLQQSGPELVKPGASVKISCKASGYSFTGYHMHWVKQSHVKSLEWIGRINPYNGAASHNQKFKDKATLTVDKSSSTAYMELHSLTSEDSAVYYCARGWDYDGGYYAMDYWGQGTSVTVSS VL: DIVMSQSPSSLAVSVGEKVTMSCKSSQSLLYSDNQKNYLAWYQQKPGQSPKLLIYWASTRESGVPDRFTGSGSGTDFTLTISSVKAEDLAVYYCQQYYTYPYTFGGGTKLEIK	pKd	8.41

--- query ---
# return recorded pKd for input humanized antibody hz27H4H1L1 (antibody, V domains shown, Heavy chain variable region hz27H4H1 with light chain variable region hz27H4L1; also called h27H4H1L1 (complete antibody)) VH: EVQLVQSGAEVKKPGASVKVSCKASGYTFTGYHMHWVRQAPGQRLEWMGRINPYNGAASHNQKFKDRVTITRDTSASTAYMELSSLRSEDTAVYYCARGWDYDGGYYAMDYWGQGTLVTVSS VL: DIQMTQSPSSLSASVGDRVTITCKSSQSLLYSDNQKNYLAWYQQKPGKAPKLLIYWASTRESGVPSRFSGSGSGTDFTLTISSLQPEDFATYYCQQYYTYPYTFGQGTKLEIK 8.64
